test system: Streptococcus pyogenes SSI-9; test: Antibacterial activity assay of bead-derived peptides (three concentrations); type: cell-based; parameters: key: +++: inhibition by the 640-fold diluted peptide solution; ++: inhibition by the 160-fold diluted solution; +: inhibition by the 40-fold diluted solution; -: no inhibition; details: S. pyogenes, bead-derived peptide solution, three concentrations
Where a SMILES comes first, the peptide text is derived from it. [ ]: non-standard residue; d: D form. The star is where a group is joined. NHCH2CH2OH = OCCN*; For = O=C*

MOLECULE	antibacterial activity
CC(C)C[C@@H](NC(=O)[C@H](C)NC(=O)CNC(=O)[C@@H](NC=O)C(C)C)C(=O)N[C@@H](C)C(=O)N[C@H](CC(C)C)C(=O)N[C@H](C(=O)N[C@@H](C(=O)N[C@@H](Cc1c[nH]c2ccccc12)C(=O)N[C@@H](C(=O)N[C@@H](Cc1c[nH]c2ccccc12)C(=O)N[C@@H](C(=O)N[C@@H](Cc1c[nH]c2ccccc12)C(=O)N[C@@H](C(=O)N[C@@H](Cc1c[nH]c2ccccc12)C(=O)NCCO)C(C)C)C(C)C)C(C)C)C(C)C)C(C)C [compound 10536] (For-VGA[dL]A[dL]V[dV]W[dV]W[dV]W[dV]W-NHCH2CH2OH)	+

###

System: P388 mouse leukemia cells
Settings: 92 h
Method: Each type of assay must be simplified and miniaturized to assess the activities of the library peptides in a 96-well format for the high-throughput screening. […] Mammalian cytotoxicity assay of bead-derived peptides . P388 cells were obtained from Institute of […] for 92 h, the numbers of viable cells were determined by […] at 37 °C. The absorbance of each well at 415 nm was measured using a Benchmark microplate reader (Bio-Rad). The cytotoxicities were evaluated as cell viability (%). […]
Where a SMILES comes first, the peptide text is derived from it. [ ]: non-standard residue; d: D form. The star is where a group is joined. NHCH2CH2OH = OCCN*; For = O=C*
VALUE KIND: cell viability/% (%)

MOLECULE	NUMERIC READOUT
CC(C)C[C@@H](NC(=O)[C@H](C)NC(=O)CNC(=O)[C@@H](NC=O)C(C)C)C(=O)N[C@@H](C)C(=O)N[C@@H](C(=O)N[C@H](C(=O)N[C@@H](C(=O)N[C@@H](Cc1c[nH]c2ccccc12)C(=O)N[C@H](CC(C)C)C(=O)N[C@@H](Cc1c[nH]c2ccccc12)C(=O)N[C@@H](C(=O)N[C@@H](Cc1c[nH]c2ccccc12)C(=O)N[C@H](CC(C)C)C(=O)N[C@@H](Cc1c[nH]c2ccccc12)C(=O)NCCO)C(C)C)[C@H](C)O)C(C)C)C(C)C [compound 4279] (For-VGA[dL]A[dV]V[dT]W[dL]W[dV]W[dL]W-NHCH2CH2OH)	98.8
CC(C)C[C@@H](NC(=O)[C@H](C)NC(=O)CNC(=O)[C@@H](NC=O)C(C)C)C(=O)N[C@@H](C)C(=O)N[C@H](CC(C)C)C(=O)N[C@H](C(=O)N[C@@H](C(=O)N[C@@H](Cc1c[nH]c2ccccc12)C(=O)N[C@H](CC(C)C)C(=O)N[C@@H](Cc1c[nH]c2ccccc12)C(=O)N[C@@H](C(=O)N[C@@H](Cc1c[nH]c2ccccc12)C(=O)N[C@@H](C(=O)N[C@@H](Cc1c[nH]c2ccccc12)C(=O)NCCO)C(C)C)[C@H](C)O)C(C)C)C(C)C [compound 13273] (For-VGA[dL]A[dL]V[dV]W[dL]W[dT]W[dV]W-NHCH2CH2OH)	100.0
CNC(=O)C[C@@H](NC(=O)[C@@H](NC(=O)[C@@H](CC(C)C)NC(=O)[C@H](C)NC(=O)[C@@H](CC(C)C)NC(=O)[C@H](C)NC(=O)CNC(=O)[C@@H](NC=O)C(C)C)C(C)C)C(=O)N[C@@H](Cc1c[nH]c2ccccc12)C(=O)N[C@H](CC(C)C)C(=O)N[C@@H](Cc1c[nH]c2ccccc12)C(=O)N[C@@H](C(=O)N[C@@H](Cc1c[nH]c2ccccc12)C(=O)N[C@H](CC(C)C)C(=O)N[C@@H](Cc1c[nH]c2ccccc12)C(=O)NCCO)C(C)C [compound 2953] (For-VGA[dL]A[dL]V[dD](NHMe)W[dL]W[dV]W[dL]W-NHCH2CH2OH)	100.0
CC(C)C[C@@H](NC(=O)[C@H](C)NC(=O)CNC(=O)[C@@H](NC=O)C(C)C)C(=O)N[C@@H](C)C(=O)N[C@@H](C(=O)N[C@H](C(=O)N[C@@H](C(=O)N[C@@H](Cc1c[nH]c2ccccc12)C(=O)N[C@H](CC(C)C)C(=O)N[C@@H](Cc1c[nH]c2ccccc12)C(=O)N[C@H](CC(C)C)C(=O)N[C@@H](Cc1c[nH]c2ccccc12)C(=O)N[C@H](CC(C)C)C(=O)N[C@@H](Cc1c[nH]c2ccccc12)C(=O)NCCO)C(C)C)C(C)C)C(C)C [compound 1, Gramicidin A] (For-VGA[dL]A[dV]V[dV]W[dL]W[dL]W[dL]W-NHCH2CH2OH)	100.0
CC(C)C[C@@H](NC(=O)[C@H](C)NC(=O)CNC(=O)[C@@H](NC=O)C(C)C)C(=O)N[C@@H](C)C(=O)N[C@H](CC(C)C)C(=O)N[C@H](C(=O)N[C@@H](C(=O)N[C@@H](Cc1c[nH]c2ccccc12)C(=O)N[C@H](CC(C)C)C(=O)N[C@@H](Cc1c[nH]c2ccccc12)C(=O)N[C@@H](C(=O)N[C@@H](Cc1c[nH]c2ccccc12)C(=O)N[C@@H](C(=O)N[C@@H](Cc1c[nH]c2ccccc12)C(=O)NCCO)C(C)C)C(C)C)C(C)C)C(C)C [compound 9607] (For-VGA[dL]A[dL]V[dV]W[dL]W[dV]W[dV]W-NHCH2CH2OH)	48.6
CNC(=O)C[C@@H](NC(=O)[C@H](C)NC(=O)[C@@H](CC(C)C)NC(=O)[C@H](C)NC(=O)CNC(=O)[C@@H](NC=O)C(C)C)C(=O)N[C@H](C(=O)N[C@@H](C(=O)N[C@@H](Cc1c[nH]c2ccccc12)C(=O)N[C@H](CC(C)C)C(=O)N[C@@H](Cc1c[nH]c2ccccc12)C(=O)N[C@@H](C(=O)N[C@@H](Cc1c[nH]c2ccccc12)C(=O)N[C@H](CC(C)C)C(=O)N[C@@H](Cc1c[nH]c2ccccc12)C(=O)NCCO)C(C)C)C(C)C)C(C)C [compound 13123] (For-VGA[dL]A[dD](NHMe)V[dV]W[dL]W[dV]W[dL]W-NHCH2CH2OH)	100.0
CC(C)C[C@@H](NC(=O)[C@H](Cc1c[nH]c2ccccc12)NC(=O)[C@@H](CC(C)C)NC(=O)[C@H](Cc1c[nH]c2ccccc12)NC(=O)[C@H](NC(=O)[C@H](Cc1c[nH]c2ccccc12)NC(=O)[C@@H](CC(C)C)NC(=O)[C@@H](NC(=O)[C@H](NC(=O)[C@H](C)NC(=O)[C@H](NC(=O)[C@H](C)NC(=O)CNC(=O)[C@@H](NC=O)C(C)C)C(C)C)C(C)C)C(C)C)C(C)C)C(=O)N[C@@H](Cc1c[nH]c2ccccc12)C(=O)NCCO [compound 11146] (For-VGA[dV]A[dV]V[dL]W[dV]W[dL]W[dL]W-NHCH2CH2OH)	100.0
CC(C)C[C@@H](NC(=O)[C@H](C)NC(=O)CNC(=O)[C@@H](NC=O)C(C)C)C(=O)N[C@@H](C)C(=O)N[C@H](CC(C)C)C(=O)N[C@H](C(=O)N[C@@H](C(=O)N[C@@H](Cc1c[nH]c2ccccc12)C(=O)N[C@@H](C(=O)N[C@@H](Cc1c[nH]c2ccccc12)C(=O)N[C@@H](C(=O)N[C@@H](Cc1c[nH]c2ccccc12)C(=O)N[C@H](CC(C)C)C(=O)N[C@@H](Cc1c[nH]c2ccccc12)C(=O)NCCO)C(C)C)[C@H](C)O)C(C)C)C(C)C [compound 12081] (For-VGA[dL]A[dL]V[dV]W[dT]W[dV]W[dL]W-NHCH2CH2OH)	100.0

Measured values drawn from paper PMC7531004 for this set.
